molecular target: acid phosphatase sample derived from Morganella morganii (Morganella morganii, UniProt P28581); construct: made in house; host or cells: Morganella morganii NCIMB 10466 (native strain, not recombinant; purified from cell-free extract); assay: Phosphorylation reaction of various nucleosides by acid phosphatase sample; type: biochemical; settings: sodium pyrophosphate 10 g/dl, nucleoside 2 g/dl, enzyme 50 units/dl, pH 4.0, 30° C., 3 hours
Sequence (P28581 21-249): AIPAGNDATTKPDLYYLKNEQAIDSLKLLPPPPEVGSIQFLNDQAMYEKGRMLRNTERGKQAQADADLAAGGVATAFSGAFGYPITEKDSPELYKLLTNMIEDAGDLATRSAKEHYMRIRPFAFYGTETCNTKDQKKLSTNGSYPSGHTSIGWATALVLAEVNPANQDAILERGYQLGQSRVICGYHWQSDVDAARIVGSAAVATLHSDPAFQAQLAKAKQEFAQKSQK
readout_type: Amount Produced (nucleoside-5′-ester)
Value and unit, in that order.

O=c1ccn([C@@H]2O[C@H](CO)[C@@H](O)[C@H]2O)c(=O)[nH]1
1.30 g/dL
Nc1nc2c(ncn2[C@@H]2O[C@H](CO)[C@@H](O)[C@H]2O)c(=O)[nH]1
1.90 g/dL
OC[C@H]1O[C@@H](n2cnc3c(O)ncnc32)[C@H](O)[C@@H]1O
2.60 g/dL

Here is the next item to consider.
Amount Produced (nucleoside-5′-ester) for "Nc1ccn([C@@H]2O[C@H](CO)[C@@H](O)[C@H]2O)c(=O)n1" ?
0.98 g/dL

###

test system: acid phosphatase derived from Escherichia blattae; type: biochemical, Escherichia blattae JCM 1650
readout_type: Effect of the addition of metal ion and inhibitor on activity

A selection of reference data follows.
[Cu+2]
inhibited
[Fe+2]
inhibited
[Ag+2]
inhibited
[Hg+2]
inhibited
O=C(O)CI
inhibited

Here is the next item to consider.
Effect of the addition of metal ion and inhibitor on activity for "[Pb+2]" ?
inhibited
